Test system: rice
Assay: Test B pre-/postemergence herbicide test
Format: in vivo, Oryza sativa
Conditions: preemergence, 125 g ai/ha; 0 to 100 scale, 0 is no effect, 100 is complete control
observed.property: Plant response rating, Rice
Answer with a bare number; do not write a unit.

The cases that follow already have their Plant response rating, Rice on record.
> print(dat)
                               smiles.entry  measured
1  CCN(CC)C(=O)c1cc(NC(=O)c2cc(C(C)(C)C)nn2CC)ccc1C         0
2  CCn1nc(C(C)(C)C)cc1C(=O)Nc1cccc(C(=O)NOC)c1         0

Memo: CCn1nc(C(C)(C)C)cc1C(=O)Nc1cccc(C(=O)OC(C)C)c1C , reported Plant response rating, Rice: 0

Memo: CCn1nc(C(C)(C)C)cc1C(=O)Nc1cccc(C(=O)OC)c1C , reported Plant response rating, Rice: 0

Memo: CCn1nc(C(C)(C)C)cc1C(=O)Nc1cccc(C#N)c1 , reported Plant response rating, Rice: 30

* * *

Test system: morningglory
Assay: Test A pre-/postemergence herbicide test
Format: in vivo, Ipomoea spp.
Conditions: Preemergence, 2000 g ai/ha; visual rating, 0 to 100 scale (0 no effect, 100 complete control)
Each entry below carries its recorded Morningglory plant response rating.
Answer with a bare number; do not write a unit.

The cases that follow already have their Morningglory plant response rating on record.
> print(dat)
                               smiles.entry                   observed.property  measured
1  Cc1nc(C(C)(C)C)sc1C(=O)Nc1cccc(C(=O)NCCF)c1  Morningglory plant response rating        60
2  CCn1nc(C(C)(C)C)cc1C(=O)Nc1cncc(C(=O)N(C)C)n1  Morningglory plant response rating        50

Memo: CCNC(=O)c1cccc(NC(=O)c2cn(CC)nc2C(F)(F)F)c1 , reported Morningglory plant response rating: 0

* * *

Each entry below carries its recorded Plant response rating, Foxtail, Giant.
Tested on: giant foxtail
Test: Test C pre-/postemergence herbicide test
Assay type: in vivo, Setaria faberi
Settings: Postemergence; 250 g ai/ha; scale 0 to 100, 0 no effect, 100 complete control
Answer with a bare number; do not write a unit.

The cases that follow already have their Plant response rating, Foxtail, Giant on record.
> print(dat)
                                   compound   assay.target  measured
1  CCn1nc(C(C)(C)C)cc1C(=O)Nc1cccc(OC(F)(F)C(F)F)c1 [Compound 333]  giant foxtail        10
2  C=CCOC(=O)c1cccc(NC(=O)c2cc(C(C)(C)C)nn2CC)c1 [Compound 85]  giant foxtail        50
3  CCn1nc(C(C)(C)C)cc1C(=O)Nc1cccc(C#N)c1 [Compound 139]  giant foxtail        10
4  CCn1nc(C(C)(C)C)cc1C(=O)Nc1ccc(F)c(C(=O)NCCF)c1 [Compound 60]  giant foxtail         5

Memo: CCn1nc(C(C)(C)C)cc1C(=O)Nc1cccc(C(=O)OC)c1 [Compound 81] , reported Plant response rating, Foxtail, Giant: 20

* * *

System: giant foxtail
Assay: Test B pre-/postemergence herbicide test
Type: in vivo, Setaria faberi
Settings: Preemergence, 500 g ai/ha; scale 0 to 100
Each entry below carries its recorded Foxtail, Giant plant response rating.
Answer with a bare number; do not write a unit.

> print(dat)
                                   molecule  measured
1  C#CCOC(=O)c1cccc(NC(=O)c2cc(C(C)(C)C)nn2CC)c1 [Compound 84]         0

Memo: CCn1nc(C(C)(C)C)cc1C(=O)Nc1cccc(C(=O)OC)c1C [Compound 87] , reported Foxtail, Giant plant response rating: 80

Memo: CCCn1nc(C(C)(C)C)cc1C(=O)Nc1cccc(C(=O)NCC)c1 [Compound 57] , reported Foxtail, Giant plant response rating: 100

Memo: CCNC(=O)c1cccc(NC(=O)c2cc(C(C)(C)C)nn2CC(C)C)c1 [Compound 42] , reported Foxtail, Giant plant response rating: 10

Memo: CCCCn1nc(C(C)(C)C)cc1C(=O)Nc1cccc(C(=O)NCC)c1 [Compound 41] , reported Foxtail, Giant plant response rating: 70

Memo: CCN(CC)C(=O)c1cc(NC(=O)c2cc(C(C)(C)C)nn2CC)ccc1C [Compound 69] , reported Foxtail, Giant plant response rating: 0

Memo: CCn1nc(C(C)(C)C)cc1C(=O)Nc1cccc(C(=O)OC)c1 [Compound 81] , reported Foxtail, Giant plant response rating: 60

* * *

System: morningglory
Assay: Test B pre-/postemergence herbicide test
Type: in vivo, Ipomoea coccinea
Settings: postemergence, 125 g ai/ha; scale 0 to 100
observed.property: Morningglory plant response rating
Answer with a bare number; do not write a unit.

The cases that follow already have their Morningglory plant response rating on record.
> print(dat)
                               smiles.entry  measured
1  CCOC(=O)c1ccnc(NC(=O)c2nn(C(C)(C)C)nc2C)c1         0
2  CCN(CC)C(=O)c1cccc(NC(=O)c2nn(C(C)(C)C)nc2C)c1        80
3  C=CCN(CC=C)C(=O)c1cccc(NC(=O)c2nn(C(C)(C)C)nc2C)n1         0

Proceeding to the next compound to report its Morningglory plant response rating.
Simply: CC(C)(C)n1nc(Br)c(C(=O)Nc2cccc(C(=O)N3CC=CC3)c2)n1 , morningglory, Morningglory plant response rating = 50

* * *

Each entry below carries its recorded Barnyardgrass plant response rating.
Test system: barnyardgrass
Assay: Test B pre-/postemergence herbicide test
Format: in vivo, Echinochloa crus-galli
Conditions: Preemergence, 500 g ai/ha; scale 0 to 100
Answer with a bare number; do not write a unit.

> print(dat)
                               smiles.entry   assay.target                    observed.property  measured
1  CCn1nc(C(C)(C)C)cc1C(=O)Nc1cccc(C(=O)NOC)c1  barnyardgrass  Barnyardgrass plant response rating        80
2  CCCn1nc(C(C)(C)C)cc1C(=O)Nc1cccc(C(=O)NCC)c1  barnyardgrass  Barnyardgrass plant response rating        70
3  CCCCn1nc(C(C)(C)C)cc1C(=O)Nc1cccc(C(=O)N(CC)CC)c1  barnyardgrass  Barnyardgrass plant response rating        40
4  CCNC(=O)c1cccc(NC(=O)c2cc(C(C)(C)C)nn2CC(C)C)c1  barnyardgrass  Barnyardgrass plant response rating        30

Proceeding to the next molecule to report its Barnyardgrass plant response rating.
Memo: C=CCOC(=O)c1cccc(NC(=O)c2cc(C(C)(C)C)nn2CC)c1 , reported Barnyardgrass plant response rating: 0

* * *

Each entry below carries its recorded Plant response rating (0 to 100 scale), Lambsquarters.
Tested on: lambsquarters
Assay: Test B pre-/postemergence herbicide test
Type: in vivo, Chenopodium album
Conditions: 125 g ai/ha; 0 is no effect, 100 is complete control; preemergence
Experimental: […] At the same time, plants selected from these crop and weed species and also blackgrass (Alopecurus myosuroides Huds.), wheat (Triticum aestivum L.) and wild oat (Avena fatua L.) were treated with postemergence applications of test chemicals formulated in the same manner. […] Treated plants and controls were maintained in a greenhouse for 13 to 15 days, after which time all species were compared to controls and visually evaluated. […]
Answer with a bare number; do not write a unit.

> print(dat)
                                   molecule  measured
1  CCOC(=O)c1ccnc(NC(=O)c2nn(C(C)(C)C)nc2C)c1 [Compound 421]         0
2  CCc1nn(C(C)(C)C)nc1C(=O)Nc1cccc(C(=O)NC2CC2)c1 [Compound 417]        90

Proceeding to the next molecule to report its Plant response rating (0 to 100 scale), Lambsquarters.
Simply: CCNC(=O)c1cccc(NC(=O)c2cc(C(C)(C)C)n[nH]2)c1 [Compound 351] , lambsquarters, Plant response rating (0 to 100 scale), Lambsquarters = 0

* * *

Tested on: large crabgrass
Assay: Test B pre-/postemergence herbicide test
Assay type: in vivo, Digitaria sanguinalis
Settings: postemergence, 500 g ai/ha; scale 0 to 100, 0 is no effect, 100 is complete control
observed.property: Crabgrass, Large plant response rating
Answer with a bare number; do not write a unit.

> print(dat)
                               smiles.entry  measured
1  CCCOC(=O)c1cc(NC(=O)c2cc(C(C)(C)C)nn2CC)c(F)cc1F        30
2  CCOC(=O)c1ccc(F)c(NC(=O)c2cc(C3(C)CC3)nn2CC)c1        60

Proceeding to the next molecule to report its Crabgrass, Large plant response rating.
Memo: C#CCNC(=O)c1cccc(NC(=O)c2nn(C(C)(C)C)nc2CC)c1 , reported Crabgrass, Large plant response rating: 10

* * *

Each entry below carries its recorded Barnyardgrass plant response rating.
Tested on: barnyardgrass
Assay: Test B pre-/postemergence herbicide test
Assay type: in vivo, Echinochloa crus-galli
Details: postemergence, 125 g ai/ha; visual rating, scale 0 (no effect) to 100 (complete control)
Answer with a bare number; do not write a unit.

> print(dat)
                               smiles.entry  measured
1  CCn1nc(C(C)(C)C)cc1C(=O)Nc1cccc(C(=O)N2CC=CC2)c1         0
2  C=CCOC(=O)c1cccc(NC(=O)c2cc(C(C)(C)C)nn2CC)c1C        10
3  CCn1nc(C(C)(C)C)cc1C(=O)Nc1cccc(C(=O)N(C)CC#N)n1         0
4  CCn1nc(C(C)(C)C)cc1C(=O)Nc1ccc(F)c(C(=O)NCCF)c1        10
5  C=CCN(C)C(=O)c1cccc(NC(=O)c2cc(C(C)(C)C)nn2CC)n1         0
6  CCn1nc(C(C)(C)C)cc1C(=O)Nc1cccc(S(=O)(=O)C(F)(F)F)c1        20
7  CC(=NO)c1cccc(NC(=O)c2cc(C(C)(C)C)nn2C)c1         0
8  CCn1nc(C(C)(C)C)cc1C(=O)Nc1cc(C(=O)N2CCOCC2)ccc1F        10

Proceeding to the next compound to report its Barnyardgrass plant response rating.
Memo: CCCOC(=O)c1cc(NC(=O)c2cc(C(C)(C)C)nn2CC)c(F)cc1F , reported Barnyardgrass plant response rating: 10

All values here come from patent US20060069132A1.
